meta.source: patent US11149062B2

Entries and their measured IC50 follow.
Biological target: Recombinant human HDAC1 (Homo sapiens, UniProt Q13547)
Construct: purchased BPS Bioscience Inc
Sequence (Q13547 whole entry): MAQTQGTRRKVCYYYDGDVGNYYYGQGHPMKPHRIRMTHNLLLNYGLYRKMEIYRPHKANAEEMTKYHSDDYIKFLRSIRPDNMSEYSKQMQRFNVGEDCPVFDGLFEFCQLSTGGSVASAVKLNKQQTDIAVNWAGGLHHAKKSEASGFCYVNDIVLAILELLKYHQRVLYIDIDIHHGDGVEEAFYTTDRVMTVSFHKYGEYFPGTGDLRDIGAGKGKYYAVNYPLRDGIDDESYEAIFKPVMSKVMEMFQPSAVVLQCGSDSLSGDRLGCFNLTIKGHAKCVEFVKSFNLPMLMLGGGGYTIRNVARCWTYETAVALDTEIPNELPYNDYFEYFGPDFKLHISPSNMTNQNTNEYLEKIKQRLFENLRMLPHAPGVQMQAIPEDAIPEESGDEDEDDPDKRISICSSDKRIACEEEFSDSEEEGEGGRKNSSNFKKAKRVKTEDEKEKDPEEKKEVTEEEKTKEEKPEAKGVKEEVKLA
Assay: HDAC-Glo I/II assay, HDAC1
Assay type: biochemical
Conditions: Class I HDAC; compounds reduced by TCEP prior to assay; read-out: IC50 of HDAC1
The reply should contain only the number, in nM.

{"columns": ["compound", "IC50 / nM"],
 "data": [
  ["CCCC[C@H](NC(=O)CC(O)/C=C/CCS)C(=O)OC (some centres unmarked)", 26.5]
]}

# IC50 (compound: CCC(C)[C@H]1NC(=O)[C@H]2CSSCC/C=C/[C@H](CC(=O)N[C@H](CCSC)C(=O)N2)OC(=O)C[C@@H]1O (some centres unmarked) [TDP-A, Thailandepsin A, reference compound] ) is 2.4

# IC50 (compound: COC(=O)[C@H]1CSSCC/C=C/C(O)CC(=O)N[C@H](CCSC)C(=O)N1 (some centres unmarked) ) is 12.5

# IC50 (compound: CCC(C)[C@H]1NC(=O)[C@H]2CSSCC/C=C/[C@H](CC(=O)N[C@H](CCSC)C(=O)N2)OC(=O)C[C@@H]1OC(C)=O (some centres unmarked) ) is 2.7

# IC50 (compound: CCC(C)[C@H]1NC(=O)[C@H]2CSSCC/C=C/[C@H](CC(=O)N[C@H](CCSC)C(=O)N2)OC(=O)C[C@@H]1OC(=O)c1ccccc1 (some centres unmarked) ) is 10.9
